# Test system: HepG2
# experimental.details: Induction of ARE in human HepG2 cells by luciferase assay
# Assay type: functional, cell-based
readout.name: EC50 (µM)

{"columns": ["compound", "readout.name", "readout.unit", "assay.value"],
 "data": [
  ["CCCCCCCCCCCCCCCCCC(=O)O[C@H]1C[C@@H](O)[C@]2(C)[C@H]3CC[C@@H]4[C@@H]([C@@](C)(O)C/C=C/C(C)(C)OO)CC[C@@]4(C)[C@]3(C)CC[C@H]2C1(C)C [BRUGUIERIN C]", "EC50", "µM", 15.7],
  ["CCCCCCCCCCCCCCCCCC(=O)O[C@H]1CC[C@]2(C)[C@H]3[C@H](O)C[C@@H]4[C@@H]([C@@](C)(O)CCC=C(C)C)CC[C@@]4(C)[C@]3(C)CC[C@H]2C1(C)C [BRUGUIERIN B]", "EC50", "µM", 9.4],
  ["C[S+]([O-])CCCCN=C=S (stereo unspecified) [SULFORAPHANE]", "EC50", "µM", 4],
  ["O=c1cc(-c2ccccc2)oc2ccc3ccccc3c12 [BETA-NAPHTHOFLAVONE]", "EC50", "µM", 8],
  ["CCCCCCCCCCCCCCCCCC(=O)O[C@H]1C[C@@H](O)[C@]2(C)[C@H]3CC[C@@H]4[C@@H]([C@@](C)(O)CCC=C(C)C)CC[C@@]4(C)[C@]3(C)CC[C@H]2C1(C)C [BRUGUIERIN A]", "EC50", "µM", 7.8],
  ["O=c1cc(-c2ccc(Br)cc2)oc2ccccc12", "EC50", "µM", 30]
]}
